Every entry's value here was drawn from ChEMBL document CHEMBL1154110.

Let's go through some recorded IC50 values for Mu-type opioid receptor (Rattus norvegicus, UniProt P33535) together.

Take a look at these entries with their results.
>  <molecule>
CCC[C@H](CNC)NC[C@@H](CCC)NCC1CCC(C)CC1 (stereo partly drawn)

>  <experimental endpoint>
IC50

>  <data value>
> 1000 nM

$$$$
>  <molecule>
CC(C)[C@@H]1CN([C@@H](CNCc2ccccc2)C(C)C)CCN1CCC1CC2CCC1C2 (stereo partly drawn)

>  <experimental endpoint>
IC50

>  <data value>
> 1000 nM

$$$$

Provide IC50, tested on Mu-type opioid receptor (Rattus norvegicus, UniProt P33535), for "CNC[C@@H](Cc1ccc(O)cc1)N1CCN(CC2CCCCCC2)[C@@H](C(C)C)C1" .
Sequence (P33535 whole entry): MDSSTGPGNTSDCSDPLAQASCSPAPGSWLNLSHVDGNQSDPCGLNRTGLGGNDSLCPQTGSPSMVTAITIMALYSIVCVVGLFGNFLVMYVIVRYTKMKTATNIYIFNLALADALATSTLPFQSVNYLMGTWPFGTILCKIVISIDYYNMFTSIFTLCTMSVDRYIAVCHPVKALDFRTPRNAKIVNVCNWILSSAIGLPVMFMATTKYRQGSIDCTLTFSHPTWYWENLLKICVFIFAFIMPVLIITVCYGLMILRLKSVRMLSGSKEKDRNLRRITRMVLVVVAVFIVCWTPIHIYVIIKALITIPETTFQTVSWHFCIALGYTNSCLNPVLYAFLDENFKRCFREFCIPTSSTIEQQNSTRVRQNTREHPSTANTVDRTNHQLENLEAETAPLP
> 1000 nM

---

pIC50: −log10 of the molar value.
For Kappa-type opioid receptor (Cavia porcellus, UniProt P41144), measured pIC50 is reported for the entries below.

Use the examples below as a reference point.
>  <compound>
CC(C)CCN1CCN([C@@H](CNCc2ccccc2)C(C)C)C[C@H]1C(C)C

>  <pIC50>
< 6.00

$$$$
>  <compound>
CC(C)[C@H](CNCc1ccccc1)N1CCN(CCC2CC3CCC2C3)[C@@H](Cc2ccccc2)C1 (stereo not given in full)

>  <pIC50>
< 6.00

$$$$
>  <compound>
CCC[C@H](CNC)NC[C@@H](CCC)NCCC12CC3CC(CC(C3)C1)C2

>  <pIC50>
< 6.00

$$$$
>  <compound>
CC(C)[C@@H]1CN([C@@H](CNCc2ccccc2)C(C)C)CCN1CCC1CC2CCC1C2 (stereo not given in full)

>  <pIC50>
< 6.00

$$$$
>  <compound>
CCC[C@H](CNC)NC[C@@H](CCC)NCCC1CC2CCC1C2 (stereo not given in full)

>  <pIC50>
< 6.00

$$$$

Return the recorded pIC50 value; entry: CC[C@H](C)[C@@H](CNC)N1CCN(CCC2CC3CCC2C3)[C@H](C(C)C)C1 (stereo not given in full)
< 6.00

For the compound "CC(C)[C@H](CNCc1ccccc1)N1CCN(CCC2CCCC2)[C@@H](Cc2ccccc2)C1" , give its reported pIC50.
< 6.00

Answer with the recorded pIC50 of "CC(C)[C@@H]1CN([C@@H](CNCc2ccccc2)C(C)C)CCN1CCc1ccccc1" only.
< 6.00

---

target: Mu-type opioid receptor (Rattus norvegicus, UniProt P33535); test: Displacement of [3H]DAMGO from mu opioid receptor in rat brain by liquid scintillation counting; format: tissue-based
Each item that follows carries a reported pIC50.
pIC50 (log units): -log10 of the concentration in mol/L.

>  <molecule>
CCC[C@H](CN[C@H](CNC)Cc1ccc(O)cc1)NCCC1CC2CCC1C2 (some centres not stated)

>  <pIC50>
6.76

$$$$
>  <molecule>
CNC[C@H](Cc1ccc(O)cc1)NC[C@H](Cc1ccc(O)cc1)NCC1CCC(C)CC1 (some centres not stated)

>  <pIC50>
6.50

$$$$
>  <molecule>
CNC[C@@H](Cc1ccc(O)cc1)N1CCN(CCC2CC3CCC2C3)[C@H](C(C)C)C1 (some centres not stated)

>  <pIC50>
6.47

$$$$
>  <molecule>
CCC[C@H](CN[C@H](CNC)Cc1ccc(O)cc1)NCCC12CC3CC(CC(C3)C1)C2

>  <pIC50>
6.28

$$$$

Recall and state the measured pIC50 for CCC[C@H](CNC)NC[C@H](Cc1ccc(O)cc1)NCCC1CC2CCC1C2 (some centres not stated) .
6.75

Read the entry "CNC[C@@H](Cc1ccc(O)cc1)N1CCN(CCCC(C)C)CC1" and write its reported pIC50.
6.33

Please report the measured pIC50 for "CNC[C@H](Cc1ccc(O)cc1)NC[C@H](Cc1ccc(O)cc1)NCC1CCCCCC1"
7.27
